System: LG0703-F948-PDC complex spheroid viability
Test: Anticancer human tumor LG0703-F948-PDC patient-derived lung adenocarcinoma cell line growth inhibition
Details: second compound 1 µM; first compound 0.316 µM; stronger effect = lower value

{"columns": ["compound", "viability, T/C (%)"],
 "data": [
  ["O=C(c1cc(Cc2n[nH]c(=O)c3ccccc23)ccc1F)N1CCN(C(=O)C2CC2)CC1 + NC1CC1c1ccc(-c2cccc(O)c2)cc1", 134],
  ["CC1COCCN1c1cc(-c2ccnn2C)c2ccnc(-c3ccn[nH]3)c2n1 (stereo not given) + NC1CC1c1ccc(-c2cccc(O)c2)cc1", 21.6],
  ["CC1COCCN1c1cc(C2(S(C)(=N)=O)CC2)nc(-c2ccnc3[nH]ccc23)n1 (stereo not given) + NC1CC1c1ccc(-c2cccc(O)c2)cc1", 113],
  ["Nc1ncn(C2CC(O)C(CO)O2)c(=O)n1 (stereo not given) + NC1CCC(NC2CC2c2ccccc2)CC1", 97],
  ["CC1(C)CCC(CN2CCN(c3ccc(C(=O)NS(=O)(=O)c4ccc(NCC5CCOCC5)c([N+](=O)[O-])c4)c(Oc4cnc5[nH]ccc5c4)c3)CC2)=C(c2ccc(Cl)cc2)C1 + NC1CC1c1ccc(-c2cccc(O)c2)cc1", 111]
]}

----------
System: LG0703-F948-PDC complex spheroid viability
Experiment: Anticancer human tumor LG0703-F948-PDC cell line growth inhibition;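 note: spheroids exposed to agents for seven days before readout; 100% = DMSO vehicle control wells as normalization base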
Details: second compound 3.16 µM; first compound 0.03 µM; stronger effect = lower value

{"columns": ["compound", "viability, T/C (%)"],
 "data": [
  ["COc1cc(C2c3cc4c(cc3C(OC3OC5COC(C)OC5C(O)C3O)C3COC(=O)C23)OCO4)cc(OC)c1O (configuration not stated) + NC1CC1c1ccc(-c2cccc(O)c2)cc1", 121],
  ["Nc1ncn(C2CC(O)C(CO)S2)c(=O)n1 (configuration not stated) + NC1CCC(NC2CC2c2ccccc2)CC1", 121],
  ["Nc1ncn(C2CC(O)C(CO)S2)c(=O)n1 (configuration not stated) + NC1CC1c1ccc(-c2cccc(O)c2)cc1", 104],
  ["NS(=O)(=O)OCC1CC(n2ccc3c(NC4CCc5ccccc54)ncnc32)CC1O (configuration not stated) + NC1CC1c1ccc(-c2cccc(O)c2)cc1", 105],
  ["O=C(C=Cc1cccc(S(=O)(=O)Nc2ccccc2)c1)NO + NC1CCC(NC2CC2c2ccccc2)CC1", 86],
  ["Nc1ccccc1NC(=O)c1ccc(CNC(=O)OCc2cccnc2)cc1 + NC1CC1c1ccc(-c2cccc(O)c2)cc1", 80.4],
  ["COc1cc(C2c3cc4c(cc3C(OC3OC5COC(C)OC5C(O)C3O)C3COC(=O)C23)OCO4)cc(OC)c1O (configuration not stated) + NC1CCC(NC2CC2c2ccccc2)CC1", 105],
  ["CCc1c2c(nc3ccc(O)cc13)-c1cc3c(c(=O)n1C2)COC(=O)[C@]3(O)CC + NC1CCC(NC2CC2c2ccccc2)CC1", 18.1],
  ["CCN(c1cc(-c2ccc(CN3CCOCC3)cc2)cc(C(=O)NCc2c(C)cc(C)[nH]c2=O)c1C)C1CCOCC1 + NC1CC1c1ccc(-c2cccc(O)c2)cc1", 95.6],
  ["NS(=O)(=O)OCC1CC(n2ccc3c(NC4CCc5ccccc54)ncnc32)CC1O (configuration not stated) + NC1CCC(NC2CC2c2ccccc2)CC1", 141],
  ["Nc1ccn(C2OC(CO)C(O)C2(F)F)c(=O)n1 (configuration not stated) + NC1CC1c1ccc(-c2cccc(O)c2)cc1", 66],
  ["Nc1ccccc1NC(=O)c1ccc(CNC(=O)OCc2cccnc2)cc1 + NC1CCC(NC2CC2c2ccccc2)CC1", 109]
]}
